The measured values listed here are drawn from ChEMBL document CHEMBL4387742.

# experimental.system: Amyloid-beta precursor protein (Homo sapiens)
# Sequence (P05067 whole entry): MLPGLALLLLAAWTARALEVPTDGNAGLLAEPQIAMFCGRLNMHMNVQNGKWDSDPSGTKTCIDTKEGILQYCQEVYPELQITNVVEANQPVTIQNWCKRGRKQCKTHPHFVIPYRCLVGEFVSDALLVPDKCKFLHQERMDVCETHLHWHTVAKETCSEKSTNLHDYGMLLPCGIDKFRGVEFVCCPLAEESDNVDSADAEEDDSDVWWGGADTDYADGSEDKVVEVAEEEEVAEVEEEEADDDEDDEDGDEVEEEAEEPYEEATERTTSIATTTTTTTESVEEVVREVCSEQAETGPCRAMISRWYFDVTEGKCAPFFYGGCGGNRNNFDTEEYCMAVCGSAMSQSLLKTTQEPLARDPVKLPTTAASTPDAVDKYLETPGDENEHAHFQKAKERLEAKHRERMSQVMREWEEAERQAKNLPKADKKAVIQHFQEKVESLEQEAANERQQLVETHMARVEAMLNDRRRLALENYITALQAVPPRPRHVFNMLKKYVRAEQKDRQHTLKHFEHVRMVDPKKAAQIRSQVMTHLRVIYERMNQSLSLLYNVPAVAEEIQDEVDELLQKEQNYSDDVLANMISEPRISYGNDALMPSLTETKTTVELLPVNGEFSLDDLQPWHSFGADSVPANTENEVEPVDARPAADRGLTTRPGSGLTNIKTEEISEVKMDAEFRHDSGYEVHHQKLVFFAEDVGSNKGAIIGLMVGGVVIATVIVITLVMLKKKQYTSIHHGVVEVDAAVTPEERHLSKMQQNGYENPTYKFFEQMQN
# method: Inhibition of human amyloid beta (1 to 40) assessed as reduction in aggregation measured after 24 hrs by ThT fluorescence assay

substance.smiles: COc1cc2oc(-c3ccc(O)cc3)cc(=O)c2c(O)c1-c1c(O)cc(O)c2c(=O)cc(-c3ccc(O)cc3)oc12
value.qualifier: =
IC50 (µM): 13

substance.smiles: COc1ccc(-c2cc(=O)c3c(O)cc(O)cc3o2)cc1-c1c(OC)cc(O)c2c(=O)cc(-c3ccc(O)cc3)oc12
value.qualifier: >
IC50 (µM): 50

substance.smiles: COc1cc(O)c2c(=O)cc(-c3ccc(OC)c(-c4c(OC)cc(O)c5c(=O)cc(-c6ccc(O)cc6)oc45)c3)oc2c1
value.qualifier: >
IC50 (µM): 50

substance.smiles: O=c1cc(-c2ccc(Oc3c(O)cc4oc(-c5ccc(O)cc5)cc(=O)c4c3O)cc2)oc2cc(O)cc(O)c12
value.qualifier: =
IC50 (µM): 9.5

substance.smiles: COc1cc(O)c2c(=O)cc(-c3ccc(O)c(-c4c(O)cc(O)c5c(=O)cc(-c6ccc(O)cc6)oc45)c3)oc2c1
value.qualifier: =
IC50 (µM): 4.9

substance.smiles: COc1ccc(-c2cc(=O)c3c(O)cc(OC)c(-c4cc(-c5cc(=O)c6c(O)cc(O)cc6o5)ccc4OC)c3o2)cc1
value.qualifier: >
IC50 (µM): 50

substance.smiles: COc1ccc(-c2cc(=O)c3c(O)cc(OC)c(-c4cc(-c5cc(=O)c6c(O)cc(OC)cc6o5)ccc4OC)c3o2)cc1
value.qualifier: >
IC50 (µM): 50

---

Listing of recorded IC50 by entry.
# experimental.system: Amyloid-beta precursor protein (Homo sapiens)
# method: Inhibition of human amyloid beta (1 to 40) assessed as reduction in aggregation measured after 24 hrs by ThT fluorescence assay

substance.smiles: COc1ccc(-c2cc(=O)c3c(O)cc(O)cc3o2)cc1-c1c(O)cc(O)c2c(=O)cc(-c3ccc(O)cc3)oc12
experimental.system: Amyloid-beta precursor protein (Homo sapiens)
IC50: 4.7 µM
--
substance.smiles: O=c1cc(-c2ccc(O)cc2)oc2cc(O)cc(O)c12
experimental.system: Amyloid-beta precursor protein (Homo sapiens)
IC50: > 50 µM
--
substance.smiles: COc1cc2oc(-c3ccc(O)cc3)cc(=O)c2c(O)c1Oc1ccc(-c2cc(=O)c3c(O)cc(O)cc3o2)cc1
experimental.system: Amyloid-beta precursor protein (Homo sapiens)
IC50: > 50 µM
--
substance.smiles: O=c1cc(-c2ccc(O)c(-c3c(O)cc(O)c4c(=O)cc(-c5ccc(O)cc5)oc34)c2)oc2cc(O)cc(O)c12
experimental.system: Amyloid-beta precursor protein (Homo sapiens)
IC50: 4.8 µM
--
substance.smiles: COc1ccc(-c2cc(=O)c3c(O)cc(OC)c(-c4cc(-c5cc(=O)c6c(O)cc(O)cc6o5)ccc4O)c3o2)cc1
experimental.system: Amyloid-beta precursor protein (Homo sapiens)
IC50: 20.1 µM
--
substance.smiles: COc1ccc(-c2cc(=O)c3c(O)c(Oc4ccc(-c5cc(=O)c6c(O)cc(O)cc6o5)cc4)c(O)cc3o2)cc1
experimental.system: Amyloid-beta precursor protein (Homo sapiens)
IC50: > 50 µM
--
substance.smiles: COc1cc(O)c2c(=O)cc(-c3ccc(OC)c(-c4c(O)cc(O)c5c(=O)cc(-c6ccc(O)cc6)oc45)c3)oc2c1
experimental.system: Amyloid-beta precursor protein (Homo sapiens)
IC50: 13.2 µM
